# System: L1210 leukemia ip in BDF1 mice, survival T/C
# METHOD: NCI In Vivo Anticancer Drug Screen. Data for tumor model L1210 Leukemia (intraperitoneal) in B6D2F1 (BDF1) mice
# RUN_CONDITIONS: endpoint: mean survival time; dose: 400.0 mg/kg/injection; schedule: Q04DX003 (ip); vehicle: saline with Tween-80; higher = longer survival
Toxic doses and inconclusive results are not listed.
MEASUREMENT_TYPE: T/C

{"MOLECULE": "CC(c1ccc2ccccc2c1)C1CCCCC1C(=O)O (stereo not drawn)", "T/C": "94 % of control"}

Report measured T/C; entry is "Cc1cccc(NC(=O)Oc2cc(C)c(Cl)cc2C(C)C)c1"
100 % of control

Look up and state reported T/C for "CC(=O)Nc1cccc2c1C(=O)OC2=O"
94 % of control

Please list T/C recorded for the molecule "CN(C)C(=O)Nc1cccc(OC(=O)NC2CCCC2)c1"
100 % of control

----------
# Test system: L1210 leukemia ip in BDF1 mice, survival T/C
# METHOD: NCI In Vivo Anticancer Drug Screen. Data for tumor model L1210 Leukemia (intraperitoneal) in B6D2F1 (BDF1) mice
# RUN_CONDITIONS: endpoint: mean survival time; dose: 100.0 mg/kg/injection; schedule: Q04DX003 (ip); vehicle: other; higher = longer survival
Inconclusive results and toxic doses are left out.
MEASUREMENT_TYPE: T/C

Below, 5 molecules whose answers are already recorded.
{"MOLECULE": "CC1(O)CC2CCC1C2 (stereo unspecified)", "RESULT": "95 % of control"}
{"MOLECULE": "Cc1oncc1/C=C/c1ccon1", "RESULT": "96 % of control"}
{"MOLECULE": "O=C(O)/C(=C/c1ccccc1)c1ccc2ccccc2c1Br", "RESULT": "100 % of control"}
{"MOLECULE": "CCCCCCCCCCCC[Si](c1ccccc1)(c1ccccc1)c1ccccc1", "RESULT": "94 % of control"}
{"MOLECULE": "CC1(c2cccc([N+](=O)[O-])c2)OCCO1", "RESULT": "103 % of control"}

Please find the next molecule below.
Quick one: give measured T/C for CC(=O)C(C)(c1ccccc1)N(Cc1ccccc1)C(=O)c1ccccc1 (stereo unspecified)
93 % of control

----------
# Test system: L1210 leukemia ip in BDF1 mice, survival T/C
# METHOD: NCI In Vivo Anticancer Drug Screen. Data for tumor model L1210 Leukemia (intraperitoneal) in B6D2F1 (BDF1) mice
# RUN_CONDITIONS: endpoint: mean survival time; dose: 200.0 mg/kg/injection; schedule: Q01DX001 (ip); vehicle: saline; higher = longer survival
Inconclusive results and toxic doses are left out.
# T/C values compiled below

// output T/C; input "O=c1[nH]c(Cc2ccccc2)c(Br)c(=O)[nH]1" ; system L1210 leukemia ip in BDF1 mice, survival T/C
100 % of control

Give T/C; test system L1210 leukemia ip in BDF1 mice, survival T/C; compound "CCOP(=S)(Nc1cccc(C(F)(F)F)c1)OCC"
100 % of control

Give reported T/C for CCCCCCC1(C)CCC(=O)O1 (configuration not stated) (L1210 leukemia ip in BDF1 mice, survival T/C)
94 % of control

Would you please give the reported T/C of CC(C)C1(NC(=O)C2C=C3c4cccc5[nH]cc(c45)CC3N(C)C2)OC2(O)C3CCCN3C(=O)C(Cc3ccccc3)N2C1=O (configuration not stated) (tested in a mixture with another compound) with L1210 leukemia ip in BDF1 mice, survival T/C?
102 % of control

State the measured T/C (L1210 leukemia ip in BDF1 mice, survival T/C) of "CC(=O)c1ccccc1OB(F)F"
106 % of control

# assay system L1210 leukemia ip in BDF1 mice, survival T/C: give T/C of COc1ccc2c(c1)C1(C)CCCC(C)(C(=O)O)C1C(Br)C2=O (configuration not stated)
101 % of control

Look up and report T/C, with L1210 leukemia ip in BDF1 mice, survival T/C as system, for "NC(=S)N/N=C\c1cn(Cc2ccccc2)c2ccccc12"
101 % of control

Provide the reported T/C (system: L1210 leukemia ip in BDF1 mice, survival T/C) for "CCOC(=O)/C(O)=C\c1cc(Br)c(OC)cc1[N+](=O)[O-]"
107 % of control

Determine reported T/C for CN(C)C1C(=O)C(C(=O)NCNC(CCS(C)=O)C(=O)O)=C(O)C2(O)C(=O)C3=C(O)c4c(O)cccc4C(C)(O)C3CC12 (configuration not stated) ; test system: L1210 leukemia ip in BDF1 mice, survival T/C.
91 % of control

Check L1210 leukemia ip in BDF1 mice, survival T/C data and give T/C for "O=C(c1c2c(nc3ccccc13)CCCC2)N1CCOCC1" .
97 % of control

Give reported T/C for "C[C@@H](c1ccccc1)[C@@H](C(=O)O)c1ccccc1" (L1210 leukemia ip in BDF1 mice, survival T/C)
97 % of control

Recall the reported T/C of "CN(CCC(=O)O)S(=O)(=O)c1ccccc1" on L1210 leukemia ip in BDF1 mice, survival T/C and write it down.
97 % of control
